- Assay system: T1, recombinant human OX40-his protein (human, UniProt P43489 29-214)
- T1 construct: Secreted via the native signal peptide, which lies within residues 1-214; also called Human OX40R-His; histidine tagged human OX40 receptor extracellular domain
- T1 sequence: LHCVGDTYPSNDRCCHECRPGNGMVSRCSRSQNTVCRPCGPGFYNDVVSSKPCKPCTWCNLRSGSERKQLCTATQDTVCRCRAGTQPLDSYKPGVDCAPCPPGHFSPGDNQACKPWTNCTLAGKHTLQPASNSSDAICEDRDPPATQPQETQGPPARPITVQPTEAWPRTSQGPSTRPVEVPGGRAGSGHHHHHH
- Assay: SPR (BIAcore 2000), antibody captured on Protein A, OX40-his injected
- Description: SPR analysis was used to measure the association and dissociation rate constants for the binding kinetics of the anti-OX40 antibodies. The binding kinetics were measured on a BIAcore 2000 (BIAcore-GE Healthcare Europe GmbH, Glattbrugg, Switzerland) at room temperature and analyzed with the BiaEvaluation software (v4.1, GE Healthcare Europe GmbH). […]
Observation type: Kd (nM)
The reply should be a number in nM, with the unit left off.

{"Binder": "Humanized 7H11 VH2/VL1 IgG1 (antibody, V domains shown, human IgG1, kappa; also called Humanized VH2-VL1 IgG1) VH: QVQLVQSGAEVKKPGASVKVSCKASGYTFTRYYMHWVRQAPGQGLEWMGWIYPGDGSTNYAQKFQGRVTMTRDTSISTAYMELSRLRSDDTAVYYCAREYGNYDYWGQGTLVTVSS VL: DIVMTQSPDSLAVSLGERATINCKSSQSLLNSGNQKNYLAWYQQKPGQPPKLLIYGASTRESGVPDRFSGSGSGTDFTLTISSLQAEDVAVYYCQNDHSYPYTFGQGTKLEIKR", "Result unit": "nM", "Kd": 21}

// field: Kd; key: Humanized 7H11 VH3/VL1 IgG1 (antibody, V domains shown, human IgG1, kappa; also called Humanized VH3-VL1 IgG1) VH: QVQLVQSGAEVKKPGASVKVSCKASGYTFTRYYMHWVRQAPGQGLEWMGIIYPGDGSTSYAQKFQGRVTMTRDTSTSTVYMELSSLRSEDTAVYYCAREYGNYDYWGQGTLVTVSS VL: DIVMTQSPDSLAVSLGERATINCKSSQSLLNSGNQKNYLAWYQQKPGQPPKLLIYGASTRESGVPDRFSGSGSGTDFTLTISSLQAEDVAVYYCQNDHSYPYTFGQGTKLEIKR ; value = 80

Lab book: Kd of Chimeric 7H11 IgG1 (antibody, V domains shown, Mouse variable domains on human IgG1 heavy constant domains and human kappa constant domain; also called 7H11 (chimeric); chimeric 7H11 antibody) VH: QVQLQQSGPELVKPGASVKMSCKASGYTFTRYYIHWMNQRPGQGLEWIGWIYPGDGSTKYNEKFKGKTTLTADTSSSTAYMLLSSLTSEDSAIYFCAREYGNYDYWGQGTTVTVSS VL: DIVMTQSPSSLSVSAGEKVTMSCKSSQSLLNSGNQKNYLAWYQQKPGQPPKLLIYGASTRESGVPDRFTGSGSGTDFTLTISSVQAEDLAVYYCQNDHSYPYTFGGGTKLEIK noted as 50

Quick note, Kd for Humanized 7H11 VH1/VL1 IgG1 (antibody, V domains shown, human IgG1, kappa; also called Humanized VH1-VL1 IgG1) VH: QVQLVQSGAEVKKPGASVKVSCKASGYTFTRYYMHWVRQAPGQGLEWMGWIYPGDGSTKYSQKFQGRVTITRDTSASTAYMELSSLRSEDTAVYYCAREYGNYDYWGQGTLVTVSS VL: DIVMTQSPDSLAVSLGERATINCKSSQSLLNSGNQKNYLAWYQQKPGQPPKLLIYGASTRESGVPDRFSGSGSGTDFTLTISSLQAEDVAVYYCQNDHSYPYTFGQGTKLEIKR landed at 35
